tested on: LNCaP; test: Antiproliferative activity against human LNCaP cells assessed as reduction in cell viability incubated for 48 hrs by MTT assay; type: functional, cell-based
pIC50: −log10 of the molar value.
measured-parameter: pIC50

compound="C/C=C/C1=CC2=C(CO1)C(=O)[C@]1(C)OC(=O)[C@H](C(O)CCCCC)[C@H]1C2 (stereo partly specified)" system_name=LNCaP numeric_result=4.35

====

Measured MIC values are reported for all entries that follow.
test system: Klebsiella aerogenes; test: Antibacterial activity against Enterobacter aerogenes KCCM 12177 assessed as reduction in bacterial growth incubated for 12 hrs by broth micro-dilution method; type: functional
measured-parameter: MIC (mg/L)

compound_structure=N[C@@H](Cc1ccccc1)C(=O)O measured_parameter=MIC numeric_result=16
compound_structure=N[C@H](Cc1ccccc1)C(=O)O measured_parameter=MIC numeric_result=16
compound_structure=N[C@@H](Cc1ccc(O)cc1)C(=O)O measured_parameter=MIC numeric_result=4
compound_structure=N[C@H](Cc1ccc(O)cc1)C(=O)O measured_parameter=MIC numeric_result=16
compound_structure=N[C@@H](CS)C(=O)O measured_parameter=MIC numeric_result=8
